EXPERIMENTAL_TARGET: T1, VEGF (human, UniProt P15692-4 27-191, limits assumed)
T1 construct: Biotinylated in the KDR-IgG ELISA, amine-coupled to the chip in BIAcore; also called biotinylated VEGF; vascular endothelial growth factor
T1 sequence (P15692 other isoform, or with tags, fused parts or gaps limits assumed): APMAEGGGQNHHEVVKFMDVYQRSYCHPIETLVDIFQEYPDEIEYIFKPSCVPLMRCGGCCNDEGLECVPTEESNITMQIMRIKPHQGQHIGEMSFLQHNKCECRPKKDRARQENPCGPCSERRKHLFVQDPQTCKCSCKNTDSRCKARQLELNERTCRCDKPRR
EXPERIMENTAL_PROTOCOL: competitive phage-ELISA, relative to pY0192
MEASURE: IC50 (mut)/IC50 (wt) (ratio)
Answers are plain numbers, in ratio.

pY0192 VH Y27A (Fab, V domains shown, Ala-scan variant of pY0192; Fab on phage) VH: EVQLVESGGGLVQPGGSLRLSCAASGATFTNYGINWVRQAPGKGLEWVGWINTYTGEPTYAADFKRRFTFSLDTSKSTAYLQMNSLRAEDTAVYYCAKYPHYYGSSHWYFDVWGQGTL VL: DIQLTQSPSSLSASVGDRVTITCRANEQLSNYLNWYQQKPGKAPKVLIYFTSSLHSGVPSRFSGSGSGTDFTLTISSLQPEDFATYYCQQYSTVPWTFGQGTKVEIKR	34

Please examine the following record next.
Tell me the measured IC50 (mut)/IC50 (wt) of pY0192 VH P58A (Fab, V domains shown, Ala-scan variant of pY0192; Fab on phage) VH: EVQLVESGGGLVQPGGSLRLSCAASGYTFTNYGINWVRQAPGKGLEWVGWINTYTGEATYAADFKRRFTFSLDTSKSTAYLQMNSLRAEDTAVYYCAKYPHYYGSSHWYFDVWGQGTL VL: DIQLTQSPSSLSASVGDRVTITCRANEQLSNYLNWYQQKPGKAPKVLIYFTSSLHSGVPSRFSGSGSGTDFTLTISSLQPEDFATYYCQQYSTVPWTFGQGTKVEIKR , please.
1
